# experimental setup: 298.15 K; 40000 kPa; Liquid; Vibrating tube method
property measured: mass density (kg/m3)
Express the result in kg/m3 but write the number alone.

Give its mass density value. Item: CC(C)C(C)C
693.73

Which mass density reading was recorded for the molecule CCCC(C)C ?
685.62

Item under review: CCC(C)(C)C . Reported mass density?
683.71

Which mass density is listed for CCC(C)CC ?
695.4

###

Would you kindly list mass density for each of these compounds?
# experimental setup: 298.15 K; 30000 kPa; Liquid; Vibrating tube method
Numbers after ± are expanded uncertainties.

For CC(C)C(C)C , what is its reported mass density?
686.05 ± 0.61 kg/m3

Value lookup for mass density; key = CCC(C)(C)C
675.66 ± 0.62 kg/m3

Request the reported mass density associated with CCCC(C)C
677.93 ± 0.62 kg/m3

Field request: mass density | item: CCC(C)CC
687.73 ± 0.61 kg/m3

###

I'd be grateful if you could share measured mass density for these entries.
# experimental setup: 288.15 K; 2000 kPa; Liquid; Vibrating tube method
// return numeric value only (unit: kg/m3, not printed)

// mass density lookup, key: CCCC(C)C
659.95

So what's the measured mass density for this one? CC(C)C(C)C
668.35

I would be grateful if you could share the reported mass density for CCC(C)(C)C .
656.25

Endpoint output: mass density of CCC(C)CC . Value?
670.93

###

# experimental setup: 318.15 K; 40000 kPa; Liquid; Vibrating tube method
property measured: mass density (kg/m3)
Express your answer in kg/m3, writing the number without its unit.

# query: mass density of entry CCC(C)(C)C [2,2-dimethylbutane]
669.72

Entry under review: CC(C)C(C)C [2,3-dimethylbutane] . Reported mass density?
679.58

Could you share which mass density value was measured for CCC(C)CC [3-methylpentane] ?
681.17

Could you tell me which mass density is on file for CCCC(C)C [2-methylpentane] ?
671.49

###

# experimental setup: 288.15 K; 40000 kPa; Liquid; Vibrating tube method
property measured: mass density (kg/m3)
Field: numeric (kg/m3). Do not append units.

Bench note: what mass density did CCC(C)CC [3-methylpentane] show?
702.32

Reported mass density, compound CCC(C)(C)C [2,2-dimethylbutane] : ____
690.77

Look up mass density: CCCC(C)C [2-methylpentane]
692.59

Report mass density for CC(C)C(C)C [2,3-dimethylbutane] please.
700.77

###

# experimental setup: 298.15 K; 10000 kPa; Liquid; Vibrating tube method
Provide the reported mass density of each item.
Provide only the numeric value, understood in kg/m3.

Reported mass density, molecule CCC(C)(C)C : ____
656.38

Reported mass density, molecule CCCC(C)C : ____
659.71

Suppose we examine the molecule CCC(C)CC ; what mass density value has been reported?
670.25

Which mass density is listed for CC(C)C(C)C ?
667.97

###

# experimental setup: 313.15 K; 65000 kPa; Liquid; Vibrating tube method
property measured: mass density (kg/m3)
Output spec: scalar in kg/m3, unitless text.

Item under review: CC(C)C(C)C . Reported mass density?
700.79

Look up mass density for this compound: CCC(C)CC
702.04

Name the reported mass density value associated with the compound CCCC(C)C
692.86

Would you mind telling me what mass density value was observed for CCC(C)(C)C ?
691.61
